Data provenance: patent US20250277057A1

target: T1, human activated protein C (human, UniProt P04070 43-197; P04070 212-461); assay: ELISA, plate coated with haPC 1 ug/mL, anti-hIgG-Fc-HRP
T1 construct: In the plasma assays aPC is generated in human plasma with Protac; also called aPC; haPC
# EC50 values compiled below
Give the number; nM is assumed, so skip it.

Completed entries (count: 2):
HAPC-14-8 (antibody, V domains shown, Whole IgG, backbone hIgG1; also called HPAC 14-8) VH: EVQLVESGGGLVQPGGSLRLSCAASGFTFSFYYLNWVRQAPGKGLEWVGDIRLKKNNYEKHYAESVKGRFTISRDDSKSITYLQMNSLRAEDTAVYYCAREGDTFDYWGQGTTVTVSS VL: DIQLTQSPSSLSASVGDRVTITCRASESVDSFGATFMHWYQQKPGKAPKLLIYLASRLGSGVPSRFSGSGSGTDFTLTISSLQPEDFATYYCVQNNEDPYTFGQGTKLEIK	0.138
Humanized antibody 14 (HAPC-14) (antibody, V domains shown, also called Humab001-14; NO; 14 antibody) VH: EVQLVESGGGLVQPGGSLRLSCAASGFTFSNYYLNWVRQAPGKGLEWVGDIRLKSNNYEKHYAESVKGRFTISRDDSKSITYLQMNSLRAEDTAVYYCAREGDYFDYWGQGTTVTVSS VL: DIQLTQSPSSLSASVGDRVTITCRASESVDSFGATFMHWYQQKPGKAPKLLIYLASNLESGVPSRFSGSGSGTDFTLTISSLQPEDFATYYCQQNNEDPYTFGQGTKLEIK	0.22

Prompt line: // lookup EC50 for HAPC-14-6 (antibody, V domains shown, Whole IgG, backbone hIgG1; also called HPAC 14-6; No. 6) VH: EVQLVESGGGLVQPGGSLRLSCAASGFTFSFYYLNWVRQAPGKGLEWVGDIRLKKNNYEKHYAESVKGRFTISRDDSKSITYLQMNSLRAEDTAVYYCAREGDYFDYWGQGTTVTVSS VL: DIQLTQSPSSLSASVGDRVTITCRASESVDSFGATFMHWYQQKPGKAPKLLIYLASRLGSGVPSRFSGSGSGTDFTLTISSLQPEDFATYYCQQNNEDPYTFGQGTKLEIK
Response line: 0.0821
